- TESTED ON: CA-IX contained in a cell lysate of line HT-29 (Homo sapiens, UniProt Q16790)
- Construct: unpurified endogenous CA-IX contained in a cell lysate or in microliter volumes of serum; endogenous in cells
- TEST METHOD NOTES: Bivalent ssCAbis probe assay, CA-IX from HT-29 cell lysate on M75 antibody, qPCR
- PROTOCOL CONDITIONS: ssCAbis probe; determined in the same way as Table 15; read-out: inhibitory constant
OBSERVABLE: Ki
Reply with the number and its unit after it.

Query: Which Ki is listed for NCCOCCOCCOCCOCCOCCC(=O)NCCCCOc1ccc(NC(=O)Nc2ccc(S(N)(=O)=O)cc2)cc1 ?
Reply: 0.3 µM
